// values below are reported ADCC EC50
Target: human Claudin 18.2 (hCLDN18.2) (human, UniProt P56856-2 1-261)
Assay: cell-based or functional assay
Express your answer in µg/mL, writing the number without its unit.

BINDER	READOUT_UNITS	ADCC EC50
ch-241F7 (antibody, V domains shown, also called chimeric antibody of clone 241F7) VH: EVQLQQSGPELEKPGASVKISCKASGYSFTAYNMNWVRQRNGKSLEWIGNIDPYYGGTNYNQKFKGKATLTVDKSSSTAYMQLKSLTSEDSAVYFCATVYYGNSLIYWGQGTLVTVSA VL: DIVMTQSPSSLTVTAGEKVTMSCKSSQSLLNSGNQKNYLTWYQQKPGQPPKLLIYWASTRESGVPDRFTGTGSGTDFTLTISSVQAEDLAVYYCQNNYFYPLTFGAGTQLELK	µg/mL	0.027

Moving on to the next binder.
Query: # return recorded ADCC EC50 for entry ch-32G8 (antibody, V domains shown, also called chimeric antibody of clone 32G8) VH: EVHLQQSGPVLVKPGASVKMSCKASGYTFTDYHMNWVKQSHGKSLEWIGVINPYNGGIRYNQKFKGKATLTVDKSSSTAYMELNSLTSEDSAVYYCATIYYGNSFAYWGQGTLVTVSA VL: DIVMTQSPSSLTVTAGEKVTMSCKSSQSLLNSGNQKNYLTWYQQKPGQPPKLLIYWASTRESGVPDRFTGSGSGTDFTLTISSVQAEDLAVYYCQNNYIYPFTFGGGTKLEIR
Reply: 0.019
